# TESTED ON: synovial collagenase of porcine or human origin
# PROTOCOL TEXT: Anticollagenase activity: release of soluble peptides from radiolabeled collagen
# Type: biochemical
# CONDITION INFO: Table II; read-out: collagenase inhibition IC50
REPORTED METRIC: pIC50
Answer as the number alone; pIC50 is minus log10 of concentration in mol/L.

# input Return reported pIC50; argument: CC(C)CC(CC(=O)NO)C(=O)N[C@H](C(=O)NCc1ccccc1)C(C)C (single isomer, unassigned) [Example 2, isomer A]
# output 4.80

###

# TESTED ON: synovial collagenase of porcine or human origin
# PROTOCOL TEXT: Anticollagenase activity: release of soluble peptides from radiolabeled collagen
# Type: biochemical
# CONDITION INFO: Table II; listed as Example 2, isomer B; read-out: collagenase inhibition IC50
REPORTED METRIC: pIC50
Friendly reminder that pIC50 comes from taking -log10 of the concentration in mol/L.

# input Entry under review: CC(C)CC(CC(=O)NO)C(=O)N[C@H](C(=O)NCc1ccccc1)C(C)C (single isomer, unassigned) . Reported pIC50?
# output 7.46

Entry source: patent US4918105A
